- Tested on: Plasmodium falciparum
- experiment.description: NOVARTIS: Inhibition of Plasmodium falciparum 3D7 (drug-susceptible) proliferation in erythrocyte-based infection assay
- Assay type: functional, organism-based
- condition.details: Plasmodium falciparum, 3D7
pEC50: −log10 of the molar value.
A collection of molecules and their measured pEC50
measured.quantity: pEC50

[
  {
    "molecule": "COc1cc2ncnc(NC3CCN(Cc4ccccc4)CC3)c2cc1OC",
    "target": "Plasmodium falciparum",
    "value.qualifier": "=",
    "obs.value": 6.40
  },
  {
    "molecule": "Clc1ccc2c(NC3CCCCCCC3)ccnc2c1",
    "target": "Plasmodium falciparum",
    "value.qualifier": "=",
    "obs.value": 5.98
  },
  {
    "molecule": "Cc1nc(Cl)cc(N2CCc3c(nc(N4CC(C)OC(C)C4)[nH]c3=O)C2)n1 (stereo not drawn)",
    "target": "Plasmodium falciparum",
    "value.qualifier": "=",
    "obs.value": 6.76
  },
  {
    "molecule": "CCOC(=O)c1cnc2c(C)cc(C)cc2c1Nc1ccc(OC)c(OC)c1",
    "target": "Plasmodium falciparum",
    "value.qualifier": "=",
    "obs.value": 5.75
  },
  {
    "molecule": "OCCN1CCN(c2cc(-c3cccnc3)nc(-c3ccncc3)n2)CC1",
    "target": "Plasmodium falciparum",
    "value.qualifier": "=",
    "obs.value": 6.02
  },
  {
    "molecule": "COC(=O)c1ccc(C2C3=C(O)CC(c4ccco4)CC3=Nc3ccccc3N2C(=O)c2ccccc2)cc1 (stereo not drawn)",
    "target": "Plasmodium falciparum",
    "value.qualifier": "=",
    "obs.value": 6.41
  },
  {
    "molecule": "CC(C)NC(=O)N1CCN(C(=O)COC(c2cccs2)c2cccnc2Cl)CC1 (stereo not drawn)",
    "target": "Plasmodium falciparum",
    "value.qualifier": "<",
    "obs.value": 5.90
  },
  {
    "molecule": "Clc1ccc(Nc2nc(NCc3ccco3)c3ccccc3n2)cc1",
    "target": "Plasmodium falciparum",
    "value.qualifier": "=",
    "obs.value": 6.95
  },
  {
    "molecule": "Cc1ccc(C#N)c(SCc2nnc(-c3ccc(Cl)cc3)o2)n1",
    "target": "Plasmodium falciparum",
    "value.qualifier": "<",
    "obs.value": 5.90
  },
  {
    "molecule": "Cc1cccc(CCNc2cc(C)nc3ncnn23)c1",
    "target": "Plasmodium falciparum",
    "value.qualifier": "=",
    "obs.value": 6.08
  },
  {
    "molecule": "CSc1oc(C(C)(C)C)nc1[P+](c1ccccc1)(c1ccccc1)c1ccccc1",
    "target": "Plasmodium falciparum",
    "value.qualifier": "=",
    "obs.value": 6.53
  },
  {
    "molecule": "CC(C)CNC(=O)c1cnc(NCCCN2CCCCC2C)nc1NC1CCCC1 (stereo not drawn)",
    "target": "Plasmodium falciparum",
    "value.qualifier": "=",
    "obs.value": 6.04
  },
  {
    "molecule": "CN1CCN=C1c1ccc(NC(=O)Nc2ccc(NC(=O)Nc3ccc(C4=NCCN4C)cc3)cc2)cc1",
    "target": "Plasmodium falciparum",
    "value.qualifier": "=",
    "obs.value": 6.80
  },
  {
    "molecule": "CCOC(=O)C1=C(C)NC2=C(C(=O)C(C(=O)OC)C(C)C2)C1c1cc(Br)c(OC)c(OC)c1 (stereo not drawn)",
    "target": "Plasmodium falciparum",
    "value.qualifier": "=",
    "obs.value": 6.27
  },
  {
    "molecule": "C[N+](C)(CC#Cc1ccccc1)CC#Cc1ccccc1",
    "target": "Plasmodium falciparum",
    "value.qualifier": "=",
    "obs.value": 5.71
  },
  {
    "molecule": "Oc1ccc(-c2ccccc2)cc1CNCCCN1CCOCC1",
    "target": "Plasmodium falciparum",
    "value.qualifier": "=",
    "obs.value": 6.15
  },
  {
    "molecule": "O=C(Nc1ccc(-n2cccn2)cc1)C1CCN(C/C=C/c2ccccc2)CC1",
    "target": "Plasmodium falciparum",
    "value.qualifier": "=",
    "obs.value": 6.33
  },
  {
    "molecule": "O=C(CCn1c(=O)[nH]c2ccccc21)NCC1Cc2cccc(-c3ccncc3)c2O1 (stereo not drawn)",
    "target": "Plasmodium falciparum",
    "value.qualifier": "=",
    "obs.value": 5.49
  },
  {
    "molecule": "COc1ccc(OC)c(NC2=C(Cl)C(=O)N(c3ccc(C)c(Cl)c3)C2=O)c1",
    "target": "Plasmodium falciparum",
    "value.qualifier": "=",
    "obs.value": 5.29
  },
  {
    "molecule": "CSCCC(C(=O)NCC(=O)O)N1C(=O)c2cc(NC(C)=O)ccc2NC(=O)[C@@H]1c1ccccc1 (stereo partly drawn)",
    "target": "Plasmodium falciparum",
    "value.qualifier": "<",
    "obs.value": 5.90
  },
  {
    "molecule": "COC(=O)c1cn([C@H]2C[C@@H](C(=O)NCc3ccc(OC)cc3)N(Cc3ccsc3)C2)nn1",
    "target": "Plasmodium falciparum",
    "value.qualifier": "<",
    "obs.value": 5.77
  },
  {
    "molecule": "O=C(COc1ccccc1)NC(c1ccco1)c1cc(Cl)c2cccnc2c1O (stereo not drawn)",
    "target": "Plasmodium falciparum",
    "value.qualifier": "=",
    "obs.value": 5.83
  },
  {
    "molecule": "CCN1CC=C(c2c[nH]c3ccccc23)CC1",
    "target": "Plasmodium falciparum",
    "value.qualifier": "=",
    "obs.value": 6.05
  },
  {
    "molecule": "Cc1ccc2c(c1)-c1c(ssc1=S)C(C)(C)N2C(=O)c1ccco1",
    "target": "Plasmodium falciparum",
    "value.qualifier": "=",
    "obs.value": 6.56
  },
  {
    "molecule": "COc1ccc(-n2nc(C(=O)NCC(=O)NCCCN3CCOCC3)c3ccccc3c2=O)cc1Cl",
    "target": "Plasmodium falciparum",
    "value.qualifier": "=",
    "obs.value": 5.90
  },
  {
    "molecule": "Cc1ccccc1N1C(=O)C2C3c4ccccc4C(C(=O)O)(c4ccccc43)C2C1=O (stereo not drawn)",
    "target": "Plasmodium falciparum",
    "value.qualifier": "<",
    "obs.value": 4.90
  },
  {
    "molecule": "Cc1ncc(CN2CCC(C(=O)Nc3ccc(-c4nc5ccccc5o4)cc3)CC2)s1",
    "target": "Plasmodium falciparum",
    "value.qualifier": "=",
    "obs.value": 6.13
  },
  {
    "molecule": "Cc1ccc(-c2nc3ncccc3o2)cc1NC(=O)COc1ccc(C(C)(C)C)cc1",
    "target": "Plasmodium falciparum",
    "value.qualifier": "=",
    "obs.value": 6.38
  },
  {
    "molecule": "O=C(NNc1nc(-c2cc3ccccc3oc2=O)cs1)c1ccccc1",
    "target": "Plasmodium falciparum",
    "value.qualifier": "<",
    "obs.value": 5.90
  },
  {
    "molecule": "COc1ccc(/C=C2\\SC(=S)N(CC(=O)NNC(=O)c3ccncc3)C2=O)cc1",
    "target": "Plasmodium falciparum",
    "value.qualifier": "<",
    "obs.value": 5.82
  },
  {
    "molecule": "FC(F)(F)c1ccccc1CN1CCc2nc(N3CCCCC3)sc2C1",
    "target": "Plasmodium falciparum",
    "value.qualifier": "=",
    "obs.value": 6.60
  },
  {
    "molecule": "CN(CCCNc1ccnc2cc(Cl)ccc12)S(=O)(=O)c1ccc(Br)cc1",
    "target": "Plasmodium falciparum",
    "value.qualifier": "=",
    "obs.value": 6.73
  },
  {
    "molecule": "CCOC(=O)c1ccc(OCC2c3cc(OC)c(OC)cc3CCN2C(=O)Nc2ccc(Cl)cc2)cc1 (stereo not drawn)",
    "target": "Plasmodium falciparum",
    "value.qualifier": "=",
    "obs.value": 5.71
  }
]

---

- System: Plasmodium falciparum
- experiment.description: NOVARTIS: Inhibition of Plasmodium falciparum W2 (drug-resistant) proliferation in erythrocyte-based infection assay
- Format: functional, organism-based
- condition.details: Plasmodium falciparum, W2; read-out: EC50
pEC50: −log10 of the molar value.
Classify as follows. Reported pEC50 greater than or equal to 6: label 1. Reported pEC50 below: label 0.

[
  {
    "molecule": "COc1cc(OC)cc(-n2c(=O)c3sccc3n(CC(=O)c3ccc(F)cc3)c2=O)c1",
    "classification": "label 0"
  },
  {
    "molecule": "COC(=O)c1ccc2c(c1)C(=O)c1ccccc1C2C1c2ccccc2C(=O)c2cc(C(=O)OC)ccc21 (configuration not stated)",
    "classification": "label 1"
  },
  {
    "molecule": "OC1=C2C(=Nc3ccccc3SC2c2ccco2)c2ccccc21 (configuration not stated)",
    "classification": "label 1"
  },
  {
    "molecule": "O=C(CCN1C(=O)C2CCCCC2C1=O)N1CCc2ccccc2C1 (configuration not stated)",
    "classification": "label 0"
  },
  {
    "molecule": "Fc1ccc2[nH]c3c(N4CCN(C(c5ccccc5)c5ccccc5)CC4)ncnc3c2c1",
    "classification": "label 1"
  },
  {
    "molecule": "CC(C)(C)CC(C)(C)Nc1c(-c2ccccc2OC(=O)c2ccccc2)nc2ccccn12",
    "classification": "label 1"
  },
  {
    "molecule": "NC(Cc1ccccc1)C(=O)N1CCn2c(nc(-c3ccccc3)c2Nc2ccc3c(c2)OCO3)C1 (configuration not stated)",
    "classification": "label 1"
  },
  {
    "molecule": "O=c1c2c3c(sc2ncn1Cc1cccc(Cl)c1)CC(N1CCCCC1)CC3 (configuration not stated)",
    "classification": "label 0"
  },
  {
    "molecule": "CCCCCCCc1cc(O)c2c3c(c(=O)oc2c1)CCC(C)C3 (configuration not stated)",
    "classification": "label 0"
  },
  {
    "molecule": "CCCCN(CCCC)S(=O)(=O)c1nc(C)c(Cl)c(C)c1C#N",
    "classification": "label 0"
  }
]
